experiment: physchem; type: physicochemical; conditions: 20 °C, pH 8, aqueous buffer
MEASURED ATTRIBUTE: solubility

{"columns": ["MOLECULE", "OBSERVED MEASUREMENT"],
 "data": [
  ["CO[C@@H]1[C@H](OC(=O)/C=C/c2ccc(OCCN(C)C)cc2)CC[C@]2(CO2)[C@H]1[C@@]1(C)O[C@@H]1CC=C(C)C [ZGN-440]", "< 200 µg/mL"]
]}

###

experiment: Particle size of jet milled ZGN-440; assay type: physicochemical; conditions: after jet milling
Labelling: D90 reported below 10 µm becomes 1; at or above becomes -1.

{"columns": ["MOLECULE", "ASSIGNED LABEL"],
 "data": [
  ["CO[C@@H]1[C@H](OC(=O)/C=C/c2ccc(OCCN(C)C)cc2)CC[C@]2(CO2)[C@H]1[C@@]1(C)O[C@@H]1CC=C(C)C [FPS/3]", 1],
  ["CO[C@@H]1[C@H](OC(=O)/C=C/c2ccc(OCCN(C)C)cc2)CC[C@]2(CO2)[C@H]1[C@@]1(C)O[C@@H]1CC=C(C)C [FPS/2]", 1],
  ["CO[C@@H]1[C@H](OC(=O)/C=C/c2ccc(OCCN(C)C)cc2)CC[C@]2(CO2)[C@H]1[C@@]1(C)O[C@@H]1CC=C(C)C [FPS/1]", 1],
  ["CO[C@@H]1[C@H](OC(=O)/C=C/c2ccc(OCCN(C)C)cc2)CC[C@]2(CO2)[C@H]1[C@@]1(C)O[C@@H]1CC=C(C)C [FPS/5]", -1],
  ["CO[C@@H]1[C@H](OC(=O)/C=C/c2ccc(OCCN(C)C)cc2)CC[C@]2(CO2)[C@H]1[C@@]1(C)O[C@@H]1CC=C(C)C [NAT]", -1],
  ["CO[C@@H]1[C@H](OC(=O)/C=C/c2ccc(OCCN(C)C)cc2)CC[C@]2(CO2)[C@H]1[C@@]1(C)O[C@@H]1CC=C(C)C [FPS/4]", -1]
]}

Cited source for all entries: patent US20170273932A1
